Test system: MS2 coat protein
Test: apparent KD of MS2 coat protein; designed switch direction (-1 OFF switch, 1 ON switch): -1; higher = weaker reporter binding
Details: input ligand: microRNA oligo, concentration not stated
The label depends only on apparent KD of MS2 coat protein: Met if it is at least 20 nM, Not met if it is smaller.

ACAUGUAUUGCAGGAUAUGGGACACAUGAGGAUCACCCAUGUGACUACAUGUCAUACCACGGGUCUCAGAAGGGUAUGUACAUG [Ex NG2 #40] (Eterna round: R96, puzzle: Exclusion NG 2) | Not met
ACCAUUUACUAAUCCUCUAUACAUGAGGAUCACCCAUGUUCUGAGGAUAUCAUCGUUCGCCGCGUUGAGAAGGCAGAGCAUUCG [Ariestion] (Eterna round: R96, puzzle: Exclusion NG 3) | Met
GCAGCAUAGUGUUAUUACACAAUACAUGAGGAUCACCCAUGUGAGGAUAUGGACUGGAUUACAGUCCAGAAGGCACAAAGCUGC [Zipper Style 3] (Eterna round: R96, puzzle: Exclusion NG 3) | Not met
AAUAAUCAUGUAGGAUAUGCGUGGCAAAGCUAUGCAGAAGGACAUGAGGAUCACCCAUGUUCUAGCGUCUGAGUACAGAUGCUA [Mat - Exclusion NG 1 - Mod of JL - D81] (Eterna round: R96, puzzle: Exclusion NG 1) | Met
UUGAAAGGUGUAGGAUAUGUAUGAGGAUCACCCAUUAAUAAAUUUUAACCACGAGGAUCACCCGUGUAGAAGGACACCUUUCAA [pwkr exNG2 2xF5 1xFMN.18] (Eterna round: R96, puzzle: Exclusion NG 2) | Not met
ACAACAAGCUUUUUGUUCGUAGAACAUGAUGCUCUAGUCACAUGAGGAUCACCCAUGUCAGCCAGUUAGAUAGGUGA [JR_SV3TOV2_Sub064] (Eterna round: R96, puzzle: Sensor v3, turn-off variant 2) | Met
AAAUAAAACAAGCAAUAAAACAUGAGGAUCACCCAUGUAAAGGGUGAAGUUCGCACCCAAAAAUAAAAUAAAUAAAA [Denovo Take 6, 5] (Eterna round: R96, puzzle: Sensor v2, turn-off variant) | Met
GUAUGUGCGAGAGGAUAUCGUGUACAAAGUACACGAGAAGGCUUCACAUGAGGAUCACCCAUGUACCGAGGUGAAACACCUUGA [Omei Exc(NG)1 Bv8] (Eterna round: R96, puzzle: Exclusion NG 1) | Met

As a next step, examine the sequence that follows.
Check the entry UAUCAUCAUGUAGGAUAUGCGUGGCAAAGCUAUGCAGAAGGACAUGAGGAUCACCCAUGUUCUAGCGUCUGAGUACAGAUGCUA [Mat - Exclusion NG 1 - Mod of JL - D75] (Eterna round: R96, puzzle: Exclusion NG 1) : does apparent KD of MS2 coat protein equal or exceed 20 nM? Met
